tested on: H929 multiple myeloma tumor line; experiment: In vitro cytotoxicity, MTT assay (Example B, Method A); assay type: cell-based; settings: H929 cells, 48 hours exposure, read-out: C50
assay.readout: IC50 (µM)

| compound | readout.value |
| --- | --- |
| Cc1cc(C(C)O)cc2c1C=C(C[C@@H](C)COc1ccnc3c1[C@H](C)CCC3)[C@]21CC[C@](Nc2cccc(Cl)c2)(C(=O)O)CC1 (single isomer, unassigned) [Example 759] | 0.185 |
| C[C@@H](COc1ccnc2c1CCC2O)C[C@H]1Cc2ccccc2[C@]12CC[C@@](Nc1cccc(Cl)c1)(C(=O)O)CC2 (single isomer, unassigned) | 0.629 |
| C[C@@H](COc1ccnc2c1[C@@H](C)CC[C@H]2C)C[C@H]1Cc2ccccc2[C@]12CC[C@@](Nc1cccc(Cl)c1)(C(=O)O)CC2 (single isomer, unassigned) | 0.559 |
